// reported protein stability index per item
B1: SPSB1 (parent)
chain: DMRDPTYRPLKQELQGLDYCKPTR

variants of: B1; experiment: protein stability index of a GFP-peptide fusion (GPS, HEK-293T) (PSI 1-6); higher = more stable; conditions: c terminus: a fixed tail appended;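 further: lentivirally expressed fusions sorted by FACS into six bins by GFP to DsRed ratio, PSI derived from sequencing read proportions per bin multiplied by bin number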
Kindly provide the number alone.

{"RESIDUE CODES": "GMRDPTYRPLKQELQGLDYCKPTR", "protein stability index": 2.65}
{"RESIDUE CODES": "DMRDPTYRPLKQELLGLDYCKPTR", "protein stability index": 2.81}
{"RESIDUE CODES": "DMRDPTYRPLKQELFGLDYCKPTR", "protein stability index": 2.6}
{"RESIDUE CODES": "DMRDPTYRPLKQELQGLDYCSPTR", "protein stability index": 2.92}
{"RESIDUE CODES": "DMRDNTYRPLKQELQGLDYCKPTR", "protein stability index": 2.93}

Fill blank: measured protein stability index of the variant `DMRDPCYRPLKQELQGLDYCKPTR` is ____.
2.91

Fill blank: measured protein stability index of the variant `DMRDPTYRPLKQWLQGLDYCKPTR` is ____.
2.44

Fill blank: measured protein stability index of the variant `DMRDPTYRPLKQELQGLDYCKPTG` is ____.
3.85

Fill blank: measured protein stability index of the variant `DMRDPTYRPLKQELQGLDYCQPTR` is ____.
2.64

Provenance of the data: the supplement of paper PMC10567573
